The measured values listed here are drawn from PubChem BioAssay (NCI).

Entries and their growth
# Test system: OVCAR-3 ovarian
# assay details: NCI-60 one-dose screen, 48 h (100 = growth as untreated, 0 = no growth, -100 = all killed)
# experimental parameters: 10 µM
This is part of a sample that, as a whole, favours compounds with a hit. Of some 83,000 tested, about 20% had one in any assay.
measured attribute: growth (%)

compound	measured attribute	value observed
CCN(CC)CC(O)CNc1ccnc2cc(Cl)c(Cl)cc12 (stereo unspecified)	growth	92.5
COc1cc(OC)cc(-c2n/c(=C\c3c(O)[nH]c4ccc(OC)cc34)cc3c2=Nc2ccccc2-3)c1	growth	94.6
CC(C)C[C@H](NC(=O)Cn1ccc(Nc2ccccc2)cc1=O)B(O)O	growth	-45.4
Cn1c(N)c(N=Cc2ccccc2)c(=O)n(C)c1=O	growth	120
COc1ccc2nc(C)cc(Nc3ccc(Cl)cc3)c2c1	growth	105
CCCCCCCCCCCC(c1ccccc1)N(C)C (stereo unspecified)	growth	106
O=[N+]([O-])c1ccc(-c2nc(-c3ccccc3)c(-c3ccccc3)n2-c2ccccc2)cc1	growth	40.2
CCCCOCCOCCOCc1cc2c(cc1Br)OCO2	growth	111
N#Cc1cnc2ccc(NCc3cnc[nH]3)cc2c1Nc1ccc(F)c(Cl)c1	growth	49.7
CCCCc1ccc(NC(=O)N(CCCl)N=O)cc1	growth	105
CCCCCCCCCCCCCC[n+]1ccccc1	growth	-51.2

----------
# Tested on: M14 melanoma
# assay details: NCI-60 one-dose screen, 48 h (100 = growth as untreated, 0 = no growth, -100 = all killed)
# experimental parameters: 10 µM
The panel holds about 83,000 compounds, 20% with a hit somewhere; the sample as a whole holds those more often.
Listing of recorded growth by entry.
measured attribute: growth (%)

compound	value observed
C#CCn1c(-c2cccc(OCCCCl)c2)nc2c1c(=O)n(C)c(=O)n2C	52.8
Cc1ccc(C)c2c1sc1nc3n[nH]c(N)c3c(=N)n12	108
Cc1ccc2c(c1)-c1cc(C)nn1-c1ccc(C#N)cc1O2	40
COc1ccc2nc(/C=C/c3ccc(N(C)C)cc3)sc2c1	103
COc1ccc(-c2nnc(N3CCN(C(=O)CN4CCN(c5ccc(Cl)cc5)CC4)CC3)nc2-c2ccc(OC)cc2)cc1	71.4
COc1ccc(-c2ccccc2)cc1C(=O)c1ccc(-c2ccccc2)cc1	52
Cc1nc2ccc(-n3c(-c4ccc(Cl)cc4)nc4ccccc4c3=O)cc2n1Cc1ccccc1	95.1
O=C(O)CN1C(=O)C=CC1=O	106
COc1cc(CSc2nc3ccc(Cl)cc3c(=O)n2Cc2ccccc2)cc(OC)c1OC	35.4
COc1ccc(-n2nnc3c(sc4ccccc43)c2=O)cc1	86.5
O=C1/C(=C/c2ccc(O)cc2)Oc2ccc(Cl)cc21	93.9
O=S(=O)(NCCO)c1ccc(OCCOc2ccc(S(=O)(=O)NCCO)cc2)cc1	102
COc1ccc(C(C)=O)cc1N1C(=O)C2C(C1=O)C1(c3ccccc3)C(=O)C2(c2ccccc2)C(c2ccc(C)cc2)=C1c1ccc(C)cc1 (configuration not stated)	-28.1
CNC(=S)Sc1ccc([N+](=O)[O-])cc1[N+](=O)[O-]	24.3
COc1cc(-c2nc3ccc(C)cc3[nH]2)ccc1OCc1nnc(-c2ccc(CC(C)C)cc2)o1	104
CCOC(=O)c1c(C)n(-c2ccc(Cl)cc2)c2ccc(OC(=O)/C=C/c3ccccc3)cc12	83.1
Clc1cc(Cl)c(OCCCCCCN2CCNCC2)c(Cl)c1	-43.9
COc1ccc(N2CCN(c3nc(-c4ccccc4)c(C#N)c(=O)[nH]3)CC2)cc1	96.8
COc1ccc(C(=O)c2sc3nc(-c4cccs4)ccc3c2N)cc1OC	42.1
FC(F)(F)c1ccc(-c2cnc(Br)nc2NC2CCCCCC2)cc1	23.1
Nc1ccc2c(c1)Cc1cc(N)c(Cl)cc1-2	107
COc1ccc(C(=O)n2nc(CC(=O)NCc3ccccc3)nc2N)cc1	101
CCN(CC)c1ccc(/C=C/C2=[N+](C)c3ccccc3C2(C)C)c(C)c1	10.5
O=C1CC(c2cccc(-c3cccnc3)c2)=Nc2ccc(Br)cc2N1	37.8
Cc1ccc(Cl)cc1Nc1nc(C(F)(F)F)ccc1C(=O)N/N=C/c1c(Cl)cccc1Cl	11.3
COc1ccc(-c2nc(NC(=O)CS(=O)(=O)c3ccc(F)cc3)sc2C)cc1	44
COc1cccc2c1O/C(=C\c1ncc([N+](=O)[O-])n1C)C2=O	-61.8
Cc1ccc(NC(=O)/C=N/O)cc1C	101
O=C(CCc1ccccc1)N1CCN(C(=O)CCc2ccccc2)CC1	95.9
c1ccc(OCCC[P+](c2ccccc2)(c2ccccc2)c2ccccc2)cc1	14.1
C=CCN1C(=O)/C(=C\c2ccc3c(c2)CCC3)SC1=S	101
COc1ccc(-c2cc(=O)n(-c3nc4ccccc4[nH]3)[nH]2)cc1OC	54.5
COc1ccc(S(=O)(=O)Nc2ccc(OCc3nnc(-c4ccc(Cl)cc4)o3)c(F)c2)cc1	78
N#CN1CC[C@H](C(=O)Nc2ncc(-c3ccccc3)s2)C1	-7.98
COc1c(-c2c3sc(=O)[nH]c3nc3c2c(=O)[nH]n3C(C)C)cc2c(c1OC)OCO2	93.8
O=NN(CC(=O)N/N=C/C=C\c1ccccc1)CC(=O)N/N=C/C=C/c1ccccc1	97.5
COc1cc(C2CC(=O)Nc3c2c(C)nn3-c2nc3ccccc3[nH]2)cc(OC)c1O (configuration not stated)	9.64
Brc1ccc(-c2cn3ccnc3c(-c3ccc(Br)cc3)n2)cc1	20.1
N/C(=N\O)c1cn(C2OC(CO)C(O)C2O)c2ncnc(N)c12 (configuration not stated)	-28.3
Cc1cc(OI)c(C(C)C)cc1-c1cc(C(C)C)c(OI)cc1C	104
CC(C)OP(=O)(O)c1ncc(-c2ccc(C(F)(F)F)cc2)c(NC2CCCCCC2)n1	53.7
Cc1ccc(-c2cc(-c3cccc(Nc4ccnc5cc(Cl)ccc45)c3)nc3nc(N)[nH]c(=O)c23)cc1	106

----------
# System: NCI/ADR-RES ovarian
# assay details: NCI-60 one-dose screen, 48 h (100 = growth as untreated, 0 = no growth, -100 = all killed)
# experimental parameters: 10 µM
This is part of a sample that, as a whole, favours compounds with a hit. Of some 83,000 tested, about 20% had one in any assay.
Hi! Just check whether growth is below 90%. Below gives Yes, equal or above gives No.

compound	class assignment
O=C1CC[C@@H](C(=O)N[C@H]2CSSC[C@@H](C(=O)NCCc3ccccc3)NC(=O)[C@H](Cc3ccccc3)NC(=O)[C@@H]3CCCN3C(=O)[C@@H]3CCCN3C2=O)N1	No
C[C@@H]1C(=O)N(C[C@H](Cc2ccccc2)NC(=O)OCc2ccccc2)[C@]1(Cc1ccccc1)C(=O)OCc1ccccc1	Yes
Cc1ccc(-n2c(-c3cc4c([nH]c5ccccc54)c(-c4cccc(O)c4)n3)n[nH]c2=S)cc1	Yes
COc1ccccc1NC1=C(N2CCCCC2)C(=O)c2ccccc2C1=O	Yes
CCNC1(NC#N)CCCCC1	No
C=CCN1C(=O)/C(=C\c2ccc3c(c2)CCC3)SC1=S	No
CC(C)(C)c1ccc(OCCCCCCN2CCNCC2)cc1	Yes
O=C(NNC(=O)c1ccncc1)Nc1ccc([N+](=O)[O-])cc1	No
c1ccc(CNc2nc(Nc3ccc(-c4nc5ccccc5[nH]4)cc3)c3cn[nH]c3n2)cc1	Yes
COc1ccc(-c2cc(/C=C3\C(=O)Nc4cc(Cl)ccc43)[nH]n2)cc1	Yes
Cc1ccc2c3c(cccc13)-c1ccccc1C2=O	No
CC[C@@]1(C(N)=O)CC2C=CC1C2 (stereo partly specified)	No
COc1cc(Cn2c(-c3ccccc3)cc3c2-c2oncc2CC3)cc(OC)c1	Yes
O=C/C=C/c1ccc([N+](=O)[O-])cc1Cl	No
NC1CCC(Nc2nc(NCc3ccc(-c4ccco4)nc3)c3ncn(C4CCCC4)c3n2)CC1 (stereo unspecified)	Yes
COc1ccc(C2C=C(c3ccc(Cl)c(Cl)c3)N=C3SC(C)=CN32)cc1OC (stereo unspecified)	Yes
COc1cc(C2C(C#N)=C(c3c[nH]c4ccccc34)Nc3nc(N)[nH]c(=O)c32)cc(OC)c1OC (stereo unspecified)	No
CS(=O)(=O)Nc1ccc(OCc2nnc(-c3ccc(Cl)cc3)o2)c(F)c1	No

----------
# System: CCRF-CEM leukemia
# assay details: NCI-60 one-dose screen, 48 h (100 = growth as untreated, 0 = no growth, -100 = all killed)
# experimental parameters: 10 µM
The panel holds about 83,000 compounds, 20% with a hit somewhere; the sample as a whole holds those more often.

molecule	system tested	growth (%)
CC(=O)Nc1ccc(Sc2ccc(NC(C)=O)cc2)cc1	CCRF-CEM leukemia	89.8
COc1ccc(-c2nsc3c2NC(=O)CC3c2cccc(Cl)c2)cc1 (configuration not stated)	CCRF-CEM leukemia	13.8
CCCC(C)c1ccc(OCCCCCCN2CCNCC2)cc1 (configuration not stated)	CCRF-CEM leukemia	4.49
C[C@]12CC[C@H]3[C@@H](CCC4=CC(=O)CC[C@@]43C)[C@@H]1CC[C@@H]2c1csc(N)n1	CCRF-CEM leukemia	42.1
Nc1nsc(C(=O)c2ccc(O)cc2)n1	CCRF-CEM leukemia	89.8
CCN1CCN(c2nc(NNC(=O)c3cccc(OC)c3)nc(N3CCN(C(c4ccccc4)c4ccccc4)CC3)n2)CC1	CCRF-CEM leukemia	48.9
O=C(COc1ccc(Cl)cc1Cl)Oc1coc(CSc2nc3ccccc3s2)cc1=O	CCRF-CEM leukemia	88.7
COc1ccc(S(=O)(=O)Nc2cc(/C=C\c3cc(OC)c(OC)c(OC)c3)ccc2OC)cc1	CCRF-CEM leukemia	15.4
CC(=O)c1ccc(NCn2nc(-c3ccc(Cl)cc3)oc2=S)cc1	CCRF-CEM leukemia	103
Cc1cc(C)c2c(Nc3ncnc4c3sc3nc(C)cc(C)c34)n[nH]c2n1	CCRF-CEM leukemia	95.3
COc1ccc(/C=C2\SC(=S)N(CCCN3CCOCC3)C2=O)c(OC)c1	CCRF-CEM leukemia	75.7
O=C(Nc1ccc(OCc2nnc(-c3ccccc3)o2)c(F)c1)Nc1ccc(Cl)c(Cl)c1	CCRF-CEM leukemia	37.6
CN(C1c2ccccc2Oc2ccccc21)S(=O)(=O)c1cc(Cl)ccc1Cl	CCRF-CEM leukemia	42.7
NC(N)=NS(=O)(=O)c1ccc(Nc2ccc3nnc(-c4ccncc4)n3n2)cc1	CCRF-CEM leukemia	109
O=S(=O)(O)C1(O)CCCCC1	CCRF-CEM leukemia	92.8
Cc1ccc(C)c(S(=O)(=O)NC2c3ccccc3Oc3ccccc32)c1	CCRF-CEM leukemia	73.7
CCCCOCCOCCOCc1cc2c(cc1Br)OCO2	CCRF-CEM leukemia	99.8
O=C/C=C/c1ccc([N+](=O)[O-])cc1Cl	CCRF-CEM leukemia	42.6
CCN(CC)CCCOC(=O)Nc1ccccc1Cl	CCRF-CEM leukemia	88.4
Nc1nc2c(nnn2C2CC(O)C(CO)O2)c(=O)[nH]1 (configuration not stated)	CCRF-CEM leukemia	19.4
COc1ccc(Cn2cc3c(c2-c2cc(OC)c(OC)c(OC)c2)CCc2cnoc2-3)cc1[N+](=O)[O-]	CCRF-CEM leukemia	22
COc1cccc(C(=O)NNc2nc(N3CCOCC3)nc(N3CCN(C(c4ccccc4)c4ccccc4)CC3)n2)c1	CCRF-CEM leukemia	85.1
